Values from ChEMBL document CHEMBL3507680

Assay: Human HepG2 cell viability assay in 384 well format
Assay type: toxicity, cell-based
Set-up: dose 125 nL, time 70.5 hour; concentration not given beside the values
Conditions: HepG2 cells, read-out: Inhibition
Readings of cytotoxicity at 70.5 h for the listed molecules
Number in %, nothing else.

Example entries and their recorded answers appear below.
>>> df
                                   molecule  endpoint_result
0  Cc1nn(C)c2ncc(S(=O)(=O)N3CCCC(C(N)=O)C3)cc12 (configuration not stated)            -6.46
1  COCCC1COC2(CCN(C(=O)C3CCCC3)CC2)C1 (configuration not stated)            -6.45
2  CC(C)CCNC(=O)C(c1cccc(F)c1)N(C)C (configuration not stated)             3.05
3  C[C@@H]1CN(c2nc3c(cc2C(N)=O)CCC3)CC[C@@]1(O)C1CCC1            -12.9
4  Cc1nn(C)c2nc(N3CCCCC3c3nccs3)sc12 (configuration not stated)              5.1

get_value(item= "CCc1ccccc1Nc1noc2c1CN(C(=O)c1ccn(C)n1)CC2" , readout=cytotoxicity at 70.5 h) returns 2.97

cytotoxicity at 70.5 h for "CCOc1ncccc1NC(=O)N1CCN(c2ccc(O)cc2)CC1" is 1.58
